Give measured pIC50 for each item. Keep answers brief.
molecular target: PCSK9 (Homo sapiens, UniProt Q8NBP7); assay: PCSK9 Alexa FRET Standard assay (displacement of AlexaFluor647 tagged cyclic peptide Reagent A); type: binding; conditions: 0.5 nM PCSK9, 20 nM AF cyclic peptide Reagent A
Sequence (Q8NBP7 153-692): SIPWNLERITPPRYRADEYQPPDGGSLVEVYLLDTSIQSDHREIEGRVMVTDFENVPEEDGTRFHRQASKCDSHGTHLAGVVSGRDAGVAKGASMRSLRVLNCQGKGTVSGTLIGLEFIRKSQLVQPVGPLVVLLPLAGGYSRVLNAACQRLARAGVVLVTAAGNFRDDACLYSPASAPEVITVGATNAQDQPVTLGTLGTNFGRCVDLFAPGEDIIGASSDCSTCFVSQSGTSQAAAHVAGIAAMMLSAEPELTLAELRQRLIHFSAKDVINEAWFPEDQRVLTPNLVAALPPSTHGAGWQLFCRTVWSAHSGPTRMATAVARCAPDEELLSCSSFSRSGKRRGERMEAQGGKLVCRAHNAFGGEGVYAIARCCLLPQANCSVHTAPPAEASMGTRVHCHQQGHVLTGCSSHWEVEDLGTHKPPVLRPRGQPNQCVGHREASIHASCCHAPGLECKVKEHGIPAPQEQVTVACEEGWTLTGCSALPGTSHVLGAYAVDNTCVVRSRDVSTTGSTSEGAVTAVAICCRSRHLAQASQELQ
pIC50: −log10 of the molar value. Numbered stars: 1 amine (or outer) side, 2 acyl side, 3 side chain; on linkers, the order of the positions; unused ones are H or OH. Bridge positions count the residues as written; N and C are the ends. Square brackets hold non-standard residues; d marks the D form. Peptide text beside a SMILES is read from it. Trp(7-aza) = N[C@@H](Cc1c[nH]c2ncccc12)C(=O)O; 1Nal = N[C@@H](Cc1cccc2ccccc12)C(=O)O; mXylylene = c1cc(C[*:1])cc(C[*:2])c1; NH(CH2)5NH = C(CCN[*:1])CCN[*:2]; Aad = N[C@@H](CCCC(=O)O)C(=O)O; Tle = CC(C)(C)[C@H](N)C(=O)O; S5 = C=CCCC[C@](C)(N)C(=O)O; Nva = CCC[C@H](N)C(=O)O; Mpa = O=C(O)CCS

Qu. Reported pIC50 for CCC[C@@H]1NC(=O)[C@H](Cc2c[nH]c3ncccc23)NC(=O)[C@H]([C@@H](C)O)NC(=O)[C@H](Cc2c[nH]cn2)NC(=O)[C@H](Cc2ccc(O)cc2)NC(=O)[C@H](C(C)(C)C)NC(=O)CCSCc2cccc(c2)CSC[C@@H](C(N)=O)NC(=O)[C@H]([C@@H](C)O)NC(=O)[C@H](CCC)NC(=O)[C@H](Cc2ccccc2)NC(=O)[C@H](CCC(=O)O)NC1=O [Compound 256] ([Mpa][Tle]YHT[Trp(7-aza)][Nva]EF[Nva]TC-NH2; linker 1-12 via mXylylene) : what is it?
Ans. 4.68 to 6.00

Qu. Reported pIC50 for CCC[C@@H]1NC(=O)[C@H](Cc2ccc(O)cc2)NC(=O)[C@H](C)NC(=O)[C@]2(C)CCC/C=C/CCC[C@](C)(NC1=O)C(=O)NCCCCCNC(=O)CCC[C@H](NC(C)=O)C(=O)N[C@@H](C(C)(C)C)C(=O)N[C@@H](Cc1ccc(O)cc1)C(=O)N1CCC[C@H]1C(=O)N[C@@H]([C@@H](C)O)C(=O)N[C@@H](Cc1cccc3ccccc13)C(=O)N2 [Compound 347] (Ac-[Aad][Tle]YPT[1Nal][S5]AY[Nva][S5]; linker 1-C via NH(CH2)5NH; staple (E) 7-11) : what is it?
Ans. 6.00 to 7.00

---

molecular target: PCSK9 (Homo sapiens, UniProt Q8NBP7); assay: PCSK9 Alexa FRET Standard assay (displacement of AlexaFluor647 tagged cyclic peptide Reagent A); assay type: binding; settings: 0.5 nM PCSK9, 20 nM AF cyclic peptide Reagent A
Numbered stars: 1 amine (or outer) side, 2 acyl side, 3 side chain; on linkers, the order of the positions; unused ones are H or OH. Bridge positions count the residues as written; N and C are the ends. Square brackets hold non-standard residues; d marks the D form. Peptide text beside a SMILES is read from it. Trp(5-F) = N[C@@H](Cc1c[nH]c2ccc(F)cc12)C(=O)O; mXylylene = c1cc(C[*:1])cc(C[*:2])c1; Tle = CC(C)(C)[C@H](N)C(=O)O; Nva = CCC[C@H](N)C(=O)O; Mpa = O=C(O)CCS
Measurement type: IC50

Qu. Reported IC50 for CCC[C@@H]1NC(=O)[C@H](Cc2c[nH]c3ccc(F)cc23)NC(=O)[C@H]([C@@H](C)O)NC(=O)[C@H](Cc2c[nH]cn2)NC(=O)[C@H](Cc2ccc(O)cc2)NC(=O)[C@H](C(C)(C)C)NC(=O)CCSCc2cccc(c2)CSC[C@@H](C(N)=O)NC(=O)[C@H]([C@@H](C)O)NC(=O)[C@H](CCC)NC(=O)[C@H](Cc2ccc(O)cc2)NC(=O)[C@H](CCC(=O)O)NC1=O [Compound 263] ([Mpa][Tle]YHT[Trp(5-F)][Nva]EY[Nva]TC-NH2; linker 1-12 via mXylylene) : what is it?
Ans. 1 to 21 µM

All values here come from patent US11814444B2.
